method notes: Rat acute gastroirritation assay
Design: species or system rat (male Sprague Dawley)
settings: in vivo, po, gastric intubation, read-out: UD50
property: TD50 at 4 h

I'd like to know its TD50 at 4 h. The compound in question is O=C(O)Cc1ccccc1Nc1c(Cl)cccc1Cl [diclofenac, reference compound]
20 mg/kg

----------
system tested: human platelet PLA2 (Homo sapiens)
Construct: Semipurified human platelet acid extract PLA2; from tissue; host or cells: human platelets (semipurified acid extract)
Sequence (P14555 21-144): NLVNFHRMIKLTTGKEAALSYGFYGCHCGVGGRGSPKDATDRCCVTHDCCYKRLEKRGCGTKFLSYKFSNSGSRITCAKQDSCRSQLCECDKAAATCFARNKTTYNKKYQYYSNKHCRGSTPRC
method notes: In vitro isolated phospholipase A2 assay, human platelet PLA2 (arachidonic acid release from 3H-AA E. coli substrate)
Format: biochemical
settings: 10 μM; human platelet; negative values denote potentiation; read-out: % Inhibition at 10 μM HP
property: inhibition at 10 µM (%)
Kindly provide the numeric value in % only, without the unit symbol.

I'd like to know its inhibition at 10 µM. The compound in question is "O=C(O)Cc1cc(OCc2ccc3ccccc3n2)ccc1Nc1ccccc1"
14.2

And then "O=C1Cc2cc(OCc3ccc4ccc(Cl)cc4n3)ccc2N1c1c(Cl)cccc1Cl" , what is it?
2.2

And then "COC(=O)Cc1cc(OCc2ccc3ccc(Cl)cc3n2)ccc1Nc1c(Cl)cccc1Cl" , what is it?
-5.3

And then "O=C(O)Cc1cc(OCc2ccc3ccc(Cl)cc3n2)ccc1Nc1c(Cl)cccc1Cl" , what is it?
-8.6
